- Test system: c-Src
- PROTOCOL_DESCRIPTION: phosphorylation enrichment, bacterial display (enrichment ratio); higher = better substrate or ligand; peptides without Tyr show the background;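 also: 11-residue human phosphosite peptides and single-mutation variants displayed on the E. coli surface, counted by deep sequencing, each peptide's frequency after selection divided by its frequency in the unselected input library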;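 also: frequency after pTyr selection over input frequency; kinase dosed for 20-30% of maximal phosphorylation in three min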
Mark Met for reported phosphorylation enrichment of 0.6 or greater; mark Not met for anything smaller.

Worked cases, answers included:
>>> print(df.to_string())
                    residue_codes  label_value
0    LTSVKYLLSAT [GSDMC_Y26_P23S]      Not met
1       GRQGIYTENER [GPR143_Y231]      Not met
2  VYSIDYYRVGG [NTRK2_Y706_T704I]          Met
3         EYKDAYKFAAD [BRDT_Y335]      Not met

Continue with the sequence presented below.
Query: Is the recorded value of phosphorylation enrichment equal to or greater than 0.6 for this sequence? NKVKFYIPDMN [NCR1_Y84]
Reply: Not met

---

- TARGET_SYSTEM: Jak2 (UniProt O60674)
- Sequence (O60674 whole entry, looked up): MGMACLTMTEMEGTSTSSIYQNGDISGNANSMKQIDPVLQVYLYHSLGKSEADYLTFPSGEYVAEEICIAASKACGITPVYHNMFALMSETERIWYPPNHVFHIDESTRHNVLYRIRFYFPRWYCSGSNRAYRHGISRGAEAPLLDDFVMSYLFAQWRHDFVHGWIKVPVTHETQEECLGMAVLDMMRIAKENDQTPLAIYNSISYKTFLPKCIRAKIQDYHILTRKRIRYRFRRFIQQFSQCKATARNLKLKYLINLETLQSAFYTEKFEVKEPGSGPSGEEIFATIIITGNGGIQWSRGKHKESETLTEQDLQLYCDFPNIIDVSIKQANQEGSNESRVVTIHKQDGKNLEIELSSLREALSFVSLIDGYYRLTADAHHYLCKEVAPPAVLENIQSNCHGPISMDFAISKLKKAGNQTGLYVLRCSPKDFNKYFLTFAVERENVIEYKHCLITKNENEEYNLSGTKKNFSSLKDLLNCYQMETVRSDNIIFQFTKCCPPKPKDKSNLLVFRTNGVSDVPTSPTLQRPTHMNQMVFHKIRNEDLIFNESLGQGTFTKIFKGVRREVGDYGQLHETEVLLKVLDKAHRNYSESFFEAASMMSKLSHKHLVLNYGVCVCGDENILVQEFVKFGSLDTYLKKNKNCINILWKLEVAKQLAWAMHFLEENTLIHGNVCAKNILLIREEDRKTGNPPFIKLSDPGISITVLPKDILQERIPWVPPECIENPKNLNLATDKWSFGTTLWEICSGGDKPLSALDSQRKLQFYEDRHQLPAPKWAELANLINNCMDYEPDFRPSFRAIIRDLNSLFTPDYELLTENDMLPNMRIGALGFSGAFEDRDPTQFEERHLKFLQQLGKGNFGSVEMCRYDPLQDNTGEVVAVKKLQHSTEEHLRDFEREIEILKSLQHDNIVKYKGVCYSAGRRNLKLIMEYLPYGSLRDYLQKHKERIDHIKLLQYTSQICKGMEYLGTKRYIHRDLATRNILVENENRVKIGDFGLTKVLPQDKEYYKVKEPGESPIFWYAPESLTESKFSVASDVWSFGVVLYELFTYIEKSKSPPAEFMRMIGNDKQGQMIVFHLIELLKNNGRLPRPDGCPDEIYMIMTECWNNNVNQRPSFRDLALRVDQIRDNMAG
- PROTOCOL_DESCRIPTION: phosphorylation enrichment, bacterial display (enrichment ratio); higher = better substrate or ligand; peptides without Tyr show the background
Mark Y for reported phosphorylation enrichment of 1 or greater; mark N for anything smaller.

Worked cases, answers included:
>>> print(df.to_string())
                     residue_codes  label_value
0  KAVLHYKHQNQ [MTOR_Y1804_E1799K]            N
1         DCAAIYGNEPE [AKR1A1_Y50]            Y
2        EAIAKYDLKAT [GRB2_Y7_F9L]            N

Query: Is the recorded value of phosphorylation enrichment equal to or greater than 1 for this sequence? IPGGIYDADLN [CST4_Y35]
Reply: Y

Query: Input PEPTGYSAELS [EZR_Y499_A494P]
Reply: N

Query: Input NNDLCYWVLEL [IARS1_Y434_P437L]
Reply: Y

Query: Input SCRSKYVGLWG [KCNQ1_Y184_G179S]
Reply: N

Query: Input TWNPKYTLRSH [STRN3_Y474]
Reply: N

Query: Input MCITRYERESQ [PRNP_Y218_Q217R]
Reply: N

---

- TARGET_SYSTEM: FGFR3 (UniProt P22607)
- Sequence (P22607 whole entry, looked up): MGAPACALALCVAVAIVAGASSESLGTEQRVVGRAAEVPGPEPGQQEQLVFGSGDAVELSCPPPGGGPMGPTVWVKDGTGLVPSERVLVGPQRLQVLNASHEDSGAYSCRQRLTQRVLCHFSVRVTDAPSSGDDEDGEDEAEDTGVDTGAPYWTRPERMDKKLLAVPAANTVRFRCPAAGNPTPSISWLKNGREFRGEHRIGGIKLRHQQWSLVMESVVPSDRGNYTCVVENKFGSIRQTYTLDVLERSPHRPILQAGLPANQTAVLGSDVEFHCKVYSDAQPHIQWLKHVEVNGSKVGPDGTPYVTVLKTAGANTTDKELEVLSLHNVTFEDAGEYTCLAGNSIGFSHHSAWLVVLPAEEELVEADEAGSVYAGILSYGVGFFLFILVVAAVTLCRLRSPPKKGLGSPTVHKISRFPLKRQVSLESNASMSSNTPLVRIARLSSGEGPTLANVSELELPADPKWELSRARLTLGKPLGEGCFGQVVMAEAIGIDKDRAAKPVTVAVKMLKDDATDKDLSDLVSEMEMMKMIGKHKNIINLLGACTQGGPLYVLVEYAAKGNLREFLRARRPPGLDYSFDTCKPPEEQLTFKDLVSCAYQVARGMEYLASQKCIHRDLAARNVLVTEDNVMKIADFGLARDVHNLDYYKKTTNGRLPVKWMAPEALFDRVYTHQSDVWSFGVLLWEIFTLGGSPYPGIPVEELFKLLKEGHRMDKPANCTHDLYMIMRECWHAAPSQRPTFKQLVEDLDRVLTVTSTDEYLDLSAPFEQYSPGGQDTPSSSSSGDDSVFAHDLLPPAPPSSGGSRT
- PROTOCOL_DESCRIPTION: phosphorylation enrichment, bacterial display (enrichment ratio); higher = better substrate or ligand; peptides without Tyr show the background
TEST_READOUT: phosphorylation enrichment
Kindly provide the number alone.

In the examples that follow, each entry is paired with its recorded phosphorylation enrichment.
>>> df
                    residue_codes           target_system  reported_measurement
0  QQMGTYGVRAA [ICAM2_Y260_R256Q]  FGFR3 (UniProt P22607)                 0.417
1  LMLVLYGRIFL [HTR1A_Y215_R220L]  FGFR3 (UniProt P22607)                 0.968
2         DTERIYDDDFF [UBA1_Y560]  FGFR3 (UniProt P22607)                 0.876

Query: What value of phosphorylation enrichment has been reported for the following sequence? GEDDVYDSVPG [FGR_opt_2018]
Reply: 0.783

Query: Input RIDPDYMGRVR [IGSF9_Y81_V82M]
Reply: 0.656

Query: Input HNELYYEEAEH [VANGL1_Y345]
Reply: 2.08

Query: Input RSRQIYDAFIM [GRK3_Y109_YF]
Reply: 0.7
